# MEASUREMENT DESCRIPTION: in vivo
# RECORDED CONDITIONS: rat, cerebrospinal fluid, po, 10 mg/kg
ATTRIBUTE MEASURED: concentration at 1 h
Record the result as a number with its unit.

// recorded concentration at 1 h for CC1(C)CN2CCNCc3ccc(F)c1c32 : 170 ng/mL

====

# MEASUREMENT DESCRIPTION: in vivo
# RECORDED CONDITIONS: rat, brain, po, 10 mg/kg
ATTRIBUTE MEASURED: concentration at 1 h (ng/g)
Report the value in ng/g with no unit label.

// recorded concentration at 1 h for CC1(C)CN2CCNCc3ccc(F)c1c32 : 8860
